Source: PubChem BioAssay AID2060511

- Tested on: 422866-222-R5-J1-PDC spheroids with HUVEC/MSC, viability
- assay_comment: Anticancer human tumor 422866-222-R5-J1-PDC patient-derived pancreatic adenocarcinoma cell line growth inhibition [GQUAD]
- protocol_conditions: second compound 0.316 µM; first compound 3.16 µM; active compounds read low
readout_kind: viability, T/C

Give viability, T/C for the following compound: Nc1ccn(C2OC(CO)C(O)C2(F)F)c(=O)n1 (stereo not drawn) + Cc1[nH]c2ccc(F)cc2c1-c1nc2c3cccnc3c3ncccc3c2[nH]1
42%

Provide viability, T/C value for the following compound: O=C(c1cc(Cc2n[nH]c(=O)c3ccccc23)ccc1F)N1CCN(C(=O)C2CC2)CC1 + Cc1cnc(CNC(=O)c2c(=O)c3ccc(N4CCCN(C)CC4)nc3n3c2sc2ccccc23)cn1
85.2%

Identify the reported viability, T/C for the following entry. C#Cc1c(F)ccc2cc(O)cc(-c3ncc4c(N5CC6CCC(C5)N6)nc(OCC56CCCN5CC(F)C6)nc4c3F)c12 (stereo not drawn) + Cc1[nH]c2ccc(F)cc2c1-c1nc2c3cccnc3c3ncccc3c2[nH]1
35%

---

- System: 422866-222-R5-J1-PDC spheroids with HUVEC/MSC, viability
- assay_comment: Anticancer human tumor 422866-222-R5-J1-PDC cell line growth inhibition [GQUAD];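 also: spheroids exposed to compounds for seven days before reading; percent viability relative to DMSO vehicle control taken as 100%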
- protocol_conditions: second compound 0.316 µM; first compound 1 µM; active compounds read low
readout_kind: viability, T/C (%)
Response body: numeric value in %, unit text excluded.

Look up viability, T/C of COc1ncnc(C2CC2)c1-c1ncc2cnn(Cc3ccc(-c4nc(C(F)(F)F)cn4C(C)C)cc3)c2n1 + Cc1cnc(CNC(=O)c2c(=O)c3ccc(N4CCCN(C)CC4)nc3n3c2sc2ccccc23)cn1 and report it.
80.4

Find the measured viability, T/C of COc1cc(C2c3cc4c(cc3C(OC3OC5COC(C)OC5C(O)C3O)C3COC(=O)C23)OCO4)cc(OC)c1O (stereo not drawn) + Cc1cnc(CNC(=O)c2c(=O)c3ccc(N4CCCN(C)CC4)nc3n3c2sc2ccccc23)cn1 and report it.
80.9

Using known records, supply viability, T/C for O=C(NO)c1cnc(N2CCN(S(=O)(=O)c3ccc4ccccc4c3)CC2)nc1 + CN(C)c1ccc(Nc2c3ccc(NC(=O)CCN4CCCC4)cc3nc3cc(NC(=O)CCN4CCCC4)ccc23)cc1
37.4

Output measured viability, T/C for this item: CC1COCCN1c1cc(C2(S(C)(=N)=O)CC2)nc(-c2ccnc3[nH]ccc23)n1 (stereo not drawn) + CN(C)c1ccc(Nc2c3ccc(NC(=O)CCN4CCCC4)cc3nc3cc(NC(=O)CCN4CCCC4)ccc23)cc1
81

Determine from records and report viability, T/C for C=CC(=O)N1CCN(c2nc(=O)n(-c3c(C)ccnc3C(C)C)c3nc(-c4c(O)cccc4F)c(F)cc23)C(C)C1 (stereo not drawn) + Cc1cnc(CNC(=O)c2c(=O)c3ccc(N4CCCN(C)CC4)nc3n3c2sc2ccccc23)cn1
29

Please list viability, T/C recorded for the compound O=C(NO)c1cnc(N2CCN(S(=O)(=O)c3ccc4ccccc4c3)CC2)nc1 + Cc1[nH]c2ccc(F)cc2c1-c1nc2c3cccnc3c3ncccc3c2[nH]1
61.7

Using the record for CCCS(=O)(=O)Nc1ccc(F)c(C(=O)c2c[nH]c3ncc(-c4ccc(Cl)cc4)cc23)c1F + Cc1cnc(CNC(=O)c2c(=O)c3ccc(N4CCCN(C)CC4)nc3n3c2sc2ccccc23)cn1 , state its measured viability, T/C.
115

Hello, please tell me recorded viability, T/C for this one: CC1COCCN1c1cc(C2(O)CC3CCC(C2)O3)c2cnn(-c3ccn[nH]3)c2n1 (stereo not drawn) + CN(C)c1ccc(Nc2c3ccc(NC(=O)CCN4CCCC4)cc3nc3cc(NC(=O)CCN4CCCC4)ccc23)cc1
90

---

Hi there, I'd appreciate the recorded viability, T/C for every entry that follows.
- Test system: 422866-222-R5-J1-PDC spheroids with HUVEC/MSC, viability
- assay_comment: Anticancer human tumor 422866-222-R5-J1-PDC cell line growth inhibition [GQUAD];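 also: spheroids exposed to compounds for seven days before reading; percent viability relative to DMSO vehicle control taken as 100%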
- protocol_conditions: second compound 3.16 µM; first compound 0.1 µM; active compounds read low
Note: unit % is implicit; provide only the numeric part.

For the compound COc1ccc([C@@H](O)c2cc(-c3ncnc4cc(N5CCOCC5)ccc34)c(F)cc2Cl)nn1 + CN(C)c1ccc(Nc2c3ccc(NC(=O)CCN4CCCC4)cc3nc3cc(NC(=O)CCN4CCCC4)ccc23)cc1 , give its measured viability, T/C value.
81.6

Specify viability, T/C for CCCS(=O)(=O)Nc1ccc(F)c(C(=O)c2c[nH]c3ncc(-c4ccc(Cl)cc4)cc23)c1F + Cc1cnc(CNC(=O)c2c(=O)c3ccc(N4CCCN(C)CC4)nc3n3c2sc2ccccc23)cn1 and stop.
80.9

Please list viability, T/C recorded for the compound Cc1cccc(N(C)C(=O)C2C(O)CCN2c2nc(C)cc(C(F)(F)F)c2C#N)c1 (stereo not drawn) + Cc1cnc(CNC(=O)c2c(=O)c3ccc(N4CCCN(C)CC4)nc3n3c2sc2ccccc23)cn1
80

---

Give viability, T/C for every item shown.
- Test system: 422866-222-R5-J1-PDC spheroids with HUVEC/MSC, viability
- assay_comment: Anticancer human tumor 422866-222-R5-J1-PDC cell line growth inhibition [GQUAD];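 also: spheroids exposed to compounds for seven days before reading; percent viability relative to DMSO vehicle control taken as 100%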
- protocol_conditions: second compound 0.0316 µM; first compound 3.16 µM; active compounds read low
- Text: DNA G-quadruplex Stabilizer Agents in Combinations in Complex Spheroids A high-throughput screen of multi-cell type tumor spheroids was designed to identify active combinations of DNA G-quadruplex stabilizer agents and targeted small molecules. […] Compounds. […] If the clinical Cmax for an agent had not been determined, the highest concentration tested was 10 microM. […]

State its viability, T/C: O=C(NO)c1cnc(N2CCN(S(=O)(=O)c3ccc4ccccc4c3)CC2)nc1 + Cc1[nH]c2ccc(F)cc2c1-c1nc2c3cccnc3c3ncccc3c2[nH]1
71.6%

Please report the measured viability, T/C for CC(C)(O)C1CCC(Nc2ccc3ncc(-c4cccc(C(F)(F)F)c4)n3n2)CC1 (configuration not stated) + Cc1cnc(CNC(=O)c2c(=O)c3ccc(N4CCCN(C)CC4)nc3n3c2sc2ccccc23)cn1
42%

Check the records and state viability, T/C for COc1ccc([C@@H](O)c2cc(-c3ncnc4cc(N5CCOCC5)ccc34)c(F)cc2Cl)nn1 + Cc1cnc(CNC(=O)c2c(=O)c3ccc(N4CCCN(C)CC4)nc3n3c2sc2ccccc23)cn1
41.9%

Name the recorded viability, T/C of the compound listed here: CCCS(=O)(=O)Nc1ccc(F)c(C(=O)c2c[nH]c3ncc(-c4ccc(Cl)cc4)cc23)c1F + Cc1[nH]c2ccc(F)cc2c1-c1nc2c3cccnc3c3ncccc3c2[nH]1
34.5%

Item CC1COCCN1c1cc(-c2ccnn2C)c2ccnc(-c3ccn[nH]3)c2n1 (configuration not stated) + CN(C)c1ccc(Nc2c3ccc(NC(=O)CCN4CCCC4)cc3nc3cc(NC(=O)CCN4CCCC4)ccc23)cc1 : provide viability, T/C
73.2%

State its viability, T/C: C=CCn1c(=O)c2cnc(Nc3ccc(N4CCN(C)CC4)cc3)nc2n1-c1cccc(C(C)(C)O)n1 + Cc1[nH]c2ccc(F)cc2c1-c1nc2c3cccnc3c3ncccc3c2[nH]1
157%

Give recorded viability, T/C. Cc1cccc(N(C)C(=O)C2C(O)CCN2c2nc(C)cc(C(F)(F)F)c2C#N)c1 (configuration not stated) + Cc1cnc(CNC(=O)c2c(=O)c3ccc(N4CCCN(C)CC4)nc3n3c2sc2ccccc23)cn1
90.5%

Provide measured viability, T/C value, entry: O=c1[nH]cc(F)c(=O)[nH]1 + CN(C)c1ccc(Nc2c3ccc(NC(=O)CCN4CCCC4)cc3nc3cc(NC(=O)CCN4CCCC4)ccc23)cc1
82.2%

Please look at this compound and report its viability, T/C: O=C(c1cc(Cc2n[nH]c(=O)c3ccccc23)ccc1F)N1CCN(C(=O)C2CC2)CC1 + CN(C)c1ccc(Nc2c3ccc(NC(=O)CCN4CCCC4)cc3nc3cc(NC(=O)CCN4CCCC4)ccc23)cc1
75.7%

Check the records and state viability, T/C for COc1cc(C2c3cc4c(cc3C(OC3OC5COC(C)OC5C(O)C3O)C3COC(=O)C23)OCO4)cc(OC)c1O (configuration not stated) + Cc1[nH]c2ccc(F)cc2c1-c1nc2c3cccnc3c3ncccc3c2[nH]1
47.8%

Quote viability, T/C reported for Cc1cccc(N(C)C(=O)C2C(O)CCN2c2nc(C)cc(C(F)(F)F)c2C#N)c1 (configuration not stated) + CN(C)c1ccc(Nc2c3ccc(NC(=O)CCN4CCCC4)cc3nc3cc(NC(=O)CCN4CCCC4)ccc23)cc1 please.
96.6%

Determine its reported viability, T/C: O=C(NO)c1cnc(N2CCN(S(=O)(=O)c3ccc4ccccc4c3)CC2)nc1 + CN(C)c1ccc(Nc2c3ccc(NC(=O)CCN4CCCC4)cc3nc3cc(NC(=O)CCN4CCCC4)ccc23)cc1
29.4%

Provide measured viability, T/C value, entry: O=C(c1cc(Cc2n[nH]c(=O)c3ccccc23)ccc1F)N1CCN(C(=O)C2CC2)CC1 + Cc1cnc(CNC(=O)c2c(=O)c3ccc(N4CCCN(C)CC4)nc3n3c2sc2ccccc23)cn1
80.5%

State its viability, T/C: CC1COCCN1c1cc(C2(O)CC3CCC(C2)O3)c2cnn(-c3ccn[nH]3)c2n1 (configuration not stated) + Cc1cnc(CNC(=O)c2c(=O)c3ccc(N4CCCN(C)CC4)nc3n3c2sc2ccccc23)cn1
80.2%

Check the records and state viability, T/C for CC1COCCN1c1cc(-c2ccnn2C)c2ccnc(-c3ccn[nH]3)c2n1 (configuration not stated) + Cc1cnc(CNC(=O)c2c(=O)c3ccc(N4CCCN(C)CC4)nc3n3c2sc2ccccc23)cn1
55%

Give recorded viability, T/C. CC(C)(O)C1CCC(Nc2ccc3ncc(-c4cccc(C(F)(F)F)c4)n3n2)CC1 (configuration not stated) + Cc1[nH]c2ccc(F)cc2c1-c1nc2c3cccnc3c3ncccc3c2[nH]1
31.8%

Complete the entry with viability, T/C for COc1ncnc(C2CC2)c1-c1ncc2cnn(Cc3ccc(-c4nc(C(F)(F)F)cn4C(C)C)cc3)c2n1 + CN(C)c1ccc(Nc2c3ccc(NC(=O)CCN4CCCC4)cc3nc3cc(NC(=O)CCN4CCCC4)ccc23)cc1
90%
